Target: T1, GST-Yap8-R7A (Saccharomyces cerevisiae, UniProt Q06596 1-294, R7A)
T1 sequence: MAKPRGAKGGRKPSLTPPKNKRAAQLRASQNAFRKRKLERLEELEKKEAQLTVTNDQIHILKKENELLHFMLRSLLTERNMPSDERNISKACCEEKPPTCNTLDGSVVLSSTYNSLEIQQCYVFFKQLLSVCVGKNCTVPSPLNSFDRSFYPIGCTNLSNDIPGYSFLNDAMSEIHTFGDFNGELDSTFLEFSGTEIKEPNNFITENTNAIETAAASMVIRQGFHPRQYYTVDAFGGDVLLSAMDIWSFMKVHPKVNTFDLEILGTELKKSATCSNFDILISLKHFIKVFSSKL
Experiment: fluorescence anisotropy; series b; FA: 10 mM Tris-HCl pH 8, 50 mM NaCl, 0.5% NP-40, 1 mM DTT, 5% glycerol, 1 nM DNA, 25C (half volume protein elution buffer). Biotin EMSA: LightShift 1x buffer, 50 ng poly(dI-dC), 2.5% glycerol, 0.05% NP-40, 5 mM MgCl2, 20 fmol probe, RT 20 min. 32P EMSA: 10 mM Tris-HCl pH 8.0, 50 mM NaCl, 1 mM DTT, 0.05% NP-40, 100 ng poly(dI-dC), 6% glycerol, 4C 30 min
Conditions: protein: recombinant; tags: GST (N-term); chain copies: 2; label: 5' FAM; blunt
pKd: −log10 of the molar value.
observable: pKd

ACR3-WT (FAM) (dsDNA) DNA 1: CTTTTTGTTTGATTAATAATCAACTTTAGCG DNA 2: CGCTAAAGTTGATTATTAATCAAACAAAAAG ... 7.87
